Listed next: entries and their corresponding melting point.

A selection of reference data follows.
molecule	melting point
O=C(Nc1ccc(CC2CCN(S(=O)(=O)c3ccccc3)CC2)cc1)C(F)(F)F	194 to 195 °C
CCOC(=O)Cc1ncn(C(c2ccccc2)(c2ccccc2)c2ccccc2)n1	117 to 119 °C
CCCc1ccnc(C(=O)O)c1N	185 to 188 °C
O=S1(=O)C=CC=CC=N1	144 to 146 °C
Nc1nc(N)c(-c2cc(Cl)cc(Cl)c2Cl)c(C(F)(F)F)n1	226 to 227 °C
CC(C)(C)OC(=O)C1CSC(C2CC3CCC2C3)N1C(=O)CNC(=O)Nc1cccc(CC(=O)O)c1 (mixture of isomers)	115 °C

Q: // query melting point value for entry Cc1nn(-c2c(Cl)cc(C(F)(F)F)cc2Cl)nc1CN(C)C
Result: 67 to 68 °C

Q: // query melting point value for entry O=C(NC(=O)C(Br)CBr)Nc1ccc(Cl)c(Cl)c1 (configuration not stated)
Result: 174 to 175 °C

Q: // query melting point value for entry CNC=C1C(=S)C(C)(C)OC1(C)C
Result: 115 to 117 °C

Q: // query melting point value for entry CC1CC(=O)NN=C1c1ccc(NC(=O)C(C)OS(C)(=O)=O)cc1 (configuration not stated)
Result: 110 to 112 °C

Q: // query melting point value for entry CN1C(=O)CN=C(c2ccccc2F)c2cc(NC(=O)N(CCOC(C)(C)C)Cc3ccccc3)ccc21
Result: 82 to 86 °C

Q: // query melting point value for entry CCCCCCCCCCCCCCCCCc1nnc2n1-c1sc(CC)cc1C(c1ccc(C)cc1)=NC2
Result: 78 to 80 °C

Q: // query melting point value for entry COC(=S)c1c[nH]c(-c2ccccc2)c1
Result: 107 to 109 °C

Q: // query melting point value for entry CCCCCCc1c(F)cc(C2C=CC(CCCCC)=CC2)cc1F (configuration not stated)
Result: 35 °C

Q: // query melting point value for entry N#CNc1ncc(-c2ccncc2)cn1
Result: > 300 °C

Q: // query melting point value for entry CC(C)(C)C(=O)Nc1ccncc1C(=NN)c1ccccc1F
Result: 78 to 82 °C

Q: // query melting point value for entry COc1ccc(C(=O)c2ccccc2)cc1C(=O)O
Result: 150 °C

Q: // query melting point value for entry CC1(C)C(=O)N(c2ccc(C#N)c(C(F)(F)F)c2)C(=O)N1CC1OC1CN1C(=O)N(c2ccc(C#N)c(C(F)(F)F)c2)C(=O)C1(C)C (configuration not stated)
Result: 108 to 110 °C

Q: // query melting point value for entry CCc1ncnc(NC(CC)c2ccc(Oc3c(F)c(F)c(C(F)(F)F)c(F)c3F)cc2)c1Cl (configuration not stated)
Result: 58 to 61 °C

Q: // query melting point value for entry Cn1cc(C(=O)O)c(=O)c2cc3cc(F)c(N4CCNC(c5ccc(OCCO)cc5)C4)cc3nc21 (racemic)
Result: 276 °C

Q: // query melting point value for entry C=C(CN1CCOCC1)C(=O)O
Result: 121 to 125 °C

Q: // query melting point value for entry CN(C)c1nc2cc(C(F)(F)F)ccc2n1Cc1ccc(Cl)cc1
Result: 103 to 107 °C

Q: // query melting point value for entry Cc1cc(OCC(=O)NCc2ccccc2)ccc1N1CC(=O)NS1(=O)=O
Result: 70 to 90 °C

Q: // query melting point value for entry CCOc1ccc(-c2ccc(OC(CC)CCN3CCN(c4cncs4)CC3)cc2)cc1 (configuration not stated)
Result: 149 to 150 °C

Q: // query melting point value for entry O=C(CCc1ccccc1)Nc1ccc(C(=O)NN=C2C(=O)Nc3ccc(Br)cc32)cc1
Result: 326 °C

Q: // query melting point value for entry CC(CCNC(=O)c1ccc(OC(F)(F)F)cc1)CC(C)(C)CNC(=O)c1ccc(OC(F)(F)F)cc1 (configuration not stated)
Result: 97 to 99 °C

Q: // query melting point value for entry BrC12CCCC(C1)C1CCC2C1 (configuration not stated)
Result: 57.5 to 58.5 °C

Reference for the values: a melting point compilation (Tetko et al.; mined from patent text by program, amines drawn as free bases though some values may be those of a salt)
